- Assay Procedure: APR_HepG2_StressKinase_72hr: Apredica 72-hour HepG2 Assay for Stress Kinase (AID 2282921)
- Settings: HepG2 stress kinase (phospho-c-Jun) imaging, actives raise or lower the signal
The source made the active and inactive calls. Rule for the calls: active = hit-call score of the fitted dose curve at least 0.9, where 1 is the maximum; inactive = score below 0.9.
# valid calls are Yes for active, No for inactive; nothing else

IN: Please indicate how the test categorized CCc1ccc(CCOc2ccc(CC3SC(=O)NC3=O)cc2)nc1 (centres undefined) .
OUT: No

IN: Called result for "CC(C)(C)c1cccc(C(C)(C)C)c1O"
OUT: No

IN: Record lookup: outcome of this test for "CC(C)(C)c1ccc(O)c(C(C)(C)C)c1" ?
OUT: Yes

IN: Returns: the outcome recorded for "Oc1cc2ccccc2c2ccccc12" in this assay.
OUT: No

IN: Dear colleague, could you share the recorded outcome for CCCCC(CC)COC(=O)CCCCC(=O)OCC(CC)CCCC (centres undefined) when you have a moment?
OUT: No

IN: I would be grateful if you could indicate the recorded call for "CCC(=C(c1ccc(O)cc1)c1ccc(OCCN(C)C)cc1)c1ccccc1" .
OUT: No

IN: So what was the verdict on "Nc1cccc2c(N)cccc12" in this test?
OUT: Yes

IN: Look up the recorded call for "CC(=O)CC(C)(C)O" in this test.
OUT: No

IN: # outcome recorded in this test, key = "COc1cc(CCC(=O)CC(=O)CCc2ccc(O)c(OC)c2)ccc1O"
OUT: No

IN: Per the assay record, what outcome was assigned to "c1ccc2c(c1)ccc1ccccc12" ?
OUT: No

IN: Kindly provide the recorded test outcome for the following molecule: CC(O)CO (centres undefined)
OUT: No

IN: Per the assay record, what outcome was assigned to "c1ccc2c(c1)Cc1ccccc1-2" ?
OUT: No

IN: Hi, do you know how "CCCCCCCCC(=O)O" came out in this test?
OUT: No

IN: Tell me the assay call for "CC1=C(/C=C/C(C)=C/C=C/C(C)=C/C(=O)O)C(C)(C)CCC1" please.
OUT: No

* * *

- Assay Procedure: BSK_SAg_PBMCCytotoxicity: PBMC Cytotoxicity Assessment in the BioMAP Diversity Plus: SAg Assay (AID 2283093);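 note: PBMC viability measured as Alamar Blue reduction fluorescence at 546/580 nm; fitted both ways against DMSO so a hit may be loss or gain of signal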
- Settings: primary human HUVEC with PBMC
Calls of active or inactive are those of the source. The calls were made as follows: active = hit-call score of the fitted dose curve at least 0.9, where 1 is the maximum; inactive = score below 0.9.
Answer with one of the outcomes given here: yes for active, no for inactive

IN: What was the test verdict on "CC[C@H](C)[C@@H](C(=O)O)n1sc2ccccc2c1=O" ?
OUT: no

IN: Tell me the recorded outcome of this test for "Cc1cc(CCN2CCN(c3nsc4ccccc34)CC2)cc2c1NC(=O)CC2(C)C" .
OUT: yes

IN: Test call, this compound: "ClC1=C(Cl)C(Cl)(Cl)C(Cl)=C1Cl"
OUT: yes

IN: Test call, this compound: "c1ccc2c(c1)ccc1ccccc12"
OUT: no

IN: Which result was noted for this compound in the test: "CC(C)(C)c1cccc(C(C)(C)C)c1O"
OUT: no

IN: Which outcome did this test record for the compound "CN(C)C=O" ?
OUT: no

IN: Could you check what this test reported for "CC(C)(C)CC(C)(C)c1ccc(O)c(-n2nc3ccccc3n2)c1" ?
OUT: no

IN: Which result was noted for this compound in the test: "CN1CCC[C@H]1c1cccnc1"
OUT: no

IN: What did the test return for "CC(C)(C)c1cc(C(C)(C)C)c(O)c(C(C)(C)C)c1" ?
OUT: no

IN: Assay outcome for "CCN(CC)CCNc1ccc(CNC=O)c2sc3ccc(OC)cc3c(=O)c12" : what was it?
OUT: yes

* * *

- Read-out: Monokine induced gamma interferon (MIG), CXCL9 (gene 4283)
- Assay Procedure: BSK_SAg_MIG: BioMAP Diversity Plus: SAg Assay for Monokine induced gamma interferon (MIG) Biomarker Activity (AID 2283092)
- Settings: primary human HUVEC with PBMC; actives raise or lower the signal
The source made the active and inactive calls. Rule for the calls: active = hit-call score of the fitted dose curve at least 0.9, where 1 is the maximum; inactive = score below 0.9.
Pick from active, inactive when you respond.

IN: For "FC(F)(I)C(F)(F)C(F)(F)C(F)(F)C(F)(F)C(F)(F)I" , which call appears in the assay record?
OUT: active

IN: What is the recorded call for this compound in the test? "C=C(C)C(=O)OCCC(F)(F)C(F)(F)C(F)(F)C(F)(F)C(F)(F)C(F)(F)F"
OUT: inactive

IN: Recorded call for "CCCCCCCC(=O)O" ?
OUT: inactive

* * *

- Read-out: Collagen III, COL3A1 (gene 1281)
- Assay Procedure: BSK_hDFCGF_CollagenIII: BioMAP Diversity Plus: hDFCGF Assay for Collagen III Biomarker Activity (AID 2283056)
- Settings: primary human foreskin fibroblasts; actives raise or lower the signal
Activity calls are given as the source filed them. Rule for the calls: active = hit-call score of the fitted dose curve at least 0.9, where 1 is the maximum; inactive = score below 0.9.
Hello, when you answer, please use one of the following outcomes: active, inactive

IN: GET /call?item= "CN1CCN(c2ccccc2/C=C2\SCCN(c3ccc(Cl)c(Cl)c3)C2=O)CC1" returns the recorded outcome of this test.
OUT: active

IN: Hi team, can someone confirm the assay call for "COC(=O)CCCCC(=O)OC" ?
OUT: inactive

IN: Record lookup: outcome of this test for N#C[C@@H]1CC(F)(F)CN1C(=O)CNC1CC2CCC(C1)N2c1ncccn1 (some centres undefined) ?
OUT: inactive

IN: Hey, what did the test say about CC(O)CO (centres undefined) ?
OUT: inactive

IN: Recorded call for "C=C(C)C(=O)OCCC(F)(F)C(F)(F)C(F)(F)C(F)(F)C(F)(F)C(F)(F)F" ?
OUT: inactive

IN: Which outcome did this test record for the compound "CC(=O)CC(C)(C)O" ?
OUT: inactive

IN: Which outcome did this test record for the compound "COc1ccc([N+](=O)[O-])cc1N" ?
OUT: inactive

IN: Status in this test for "CC[C@H](c1ccc(O)cc1)[C@@H](CC)c1ccc(O)cc1" ?
OUT: active

IN: Just curious, what result did "NC(=O)N(O)[C@@H]1C=C[C@H](Oc2cccc(Oc3ccc(F)cc3)c2)C1" get here?
OUT: inactive

IN: Fill in: this test's call for "CCCCCCCCCCCCN1CCCC1=O" is ___
OUT: active

IN: Tell me the recorded outcome of this test for "CCCCCCCC(=O)O" .
OUT: inactive

IN: What outcome does the record of this test show for "Oc1cc2ccccc2c2ccccc12" ?
OUT: active

IN: Can you look up the reported call for "CC#C[C@]1(O)CC[C@H]2[C@@H]3CCC4=CC(=O)CCC4=C3[C@@H](c3ccc(N(C)C)cc3)C[C@@]21C" for me?
OUT: active

IN: // return assay outcome for "C#C[C@]1(O)CC[C@H]2[C@@H]3CCC4=CC(=O)CC[C@@H]4[C@H]3CC[C@@]21C"
OUT: inactive

* * *

- Tested System: Cellular tumor antigen p53 (Homo sapiens)
- Assay Procedure: TOX21_p53_BLA_p3_ratio: Tox21 HCT-116 p53 Agonism Beta-lactamase Assay, Ratio, Phase 3 (AID 2283596)
Inconclusive results are not listed. Calls of active or inactive are those of the source. The calls were made as follows: active = hit-call score of the fitted dose curve at least 0.9, where 1 is the maximum; inconclusive = response in the unintended direction; inactive = score below 0.9.
Pick from 1 = active, -1 = inactive when you respond.

IN: Give the logged outcome of this assay for the following compound: "CN(C)C=O"
OUT: -1

IN: Returns: the outcome recorded for "OC1CCCCC1" in this assay.
OUT: -1

IN: Could you please tell me the result logged for COCC(C)O (centres undefined) in this assay?
OUT: -1

IN: Hi, do you know how "O=c1c(-c2ccc(O)cc2)coc2cc(O)ccc12" came out in this test?
OUT: -1

IN: Could you kindly confirm the outcome this assay logged for "Cc1cc(CCN2CCN(c3nsc4ccccc34)CC2)cc2c1NC(=O)CC2(C)C" ?
OUT: -1

IN: For this compound, state the assay outcome: "CCCCCCCC(=O)O"
OUT: -1

IN: Look up the recorded call for "Oc1cc2ccccc2c2ccccc12" in this test.
OUT: 1

IN: // outcome(item) with item = CCc1nn(C2CCCCC2)c2cc(C3(C#N)CCC(C(=O)O)CC3)ccc12 (centres undefined)
OUT: 1

IN: Could you check what this test reported for "CCCCCCCCC(=O)O" ?
OUT: -1

IN: I'd appreciate the recorded outcome for "CCN(CC)CCNc1ccc(CNC=O)c2sc3ccc(OC)cc3c(=O)c12" from this test.
OUT: 1

IN: For "c1ccc2cc3c(ccc4ccccc43)cc2c1" , what call appears in the results of this test?
OUT: -1

IN: Lab log entry: "O=[N+]([O-])c1ccc(O)cc1" — outcome as called in the assay?
OUT: -1

IN: Per the assay record, what outcome was assigned to "CC(=O)NC1(c2cccc(F)c2)CCN(CC[C@@]2(c3ccc(Cl)c(Cl)c3)CN(c3ccccc3)C(=O)CO2)CC1" ?
OUT: 1

IN: Field: outcome | Entry: "CCCCCCCCOC(=O)CCCCCCCCC(=O)OCCCCCCCC"
OUT: -1

* * *

- Read-out: UDP glucuronosyltransferase (UGT1A1), UGT1A1 (gene 54658)
- Assay Procedure: LTEA_HepaRG_UGT1A1: Life Technologies and Expression Analysis (LTEA) Assay for UDP glucuronosyltransferase (UGT1A1) using HepaRG (AID 2283538)
- Settings: mRNA level, 48 h; actives raise or lower the signal
Calls of active or inactive are those of the source. How the source made its calls: active means hit-call score of the fitted dose curve at least 0.9, where 1 is the maximum; inactive means score below 0.9.
Respond with a class label; see active, inactive

IN: Which outcome was assigned to "CCC(=C(c1ccc(O)cc1)c1ccc(OCCN(C)C)cc1)c1ccccc1" in this test?
OUT: inactive

IN: Please indicate how the test categorized "Cc1oc(-c2ccccc2)nc1CCOc1ccc(C[C@H](Nc2ccccc2C(=O)c2ccccc2)C(=O)O)cc1" .
OUT: active

IN: How did this test come out for "CCN(CC)CCNc1ccc(CNC=O)c2sc3ccc(OC)cc3c(=O)c12" ?
OUT: active

IN: Hey, what did the test say about "CN(C)C=O" ?
OUT: inactive

IN: Which result was noted for this molecule in the test: "CCCCCCCCCCCCc1ccccc1S(=O)(=O)O"
OUT: active

IN: Kindly provide the recorded test outcome for the following molecule: "c1ccc2c(c1)ccc1ccccc12"
OUT: active

IN: Please let me know the test result on file for CCCCC(CC)COC(=O)CCCCC(=O)OCc1ccccc1 (stereo not drawn) .
OUT: inactive

IN: I'd appreciate the recorded outcome for "CC(C)(C)c1cccc(C(C)(C)C)c1O" from this test.
OUT: inactive

IN: So what was the verdict on CC(O)CO (stereo not drawn) in this test?
OUT: inactive

IN: Short answer needed: outcome of this test for "ClC1=C(Cl)C(Cl)(Cl)C(Cl)=C1Cl" ?
OUT: inactive

IN: GET /call?item= NC(=O)N1C(=O)C(C(=O)c2cc(Cl)cs2)c2cc(F)c(Cl)cc21 (stereo not drawn) returns the recorded outcome of this test.
OUT: active

IN: So what was the verdict on "CN1CCN(c2ccccc2/C=C2\SCCN(c3ccc(Cl)c(Cl)c3)C2=O)CC1" in this test?
OUT: active

IN: Identify the outcome logged in this assay for the molecule shown: "Cc1cc(C)c(O)c(C)c1"
OUT: active

IN: Outcome logged for CCC(C)(C)C1CCC(O)CC1 (stereo not drawn) in this assay:
OUT: inactive

IN: Hi, sorry to bother you, what did the test record for "CCCCCCCCCCCCCCCS(=O)(=O)Oc1ccccc1" ?
OUT: active

IN: Entry "NC(=O)N(O)[C@@H]1C=C[C@H](Oc2cccc(Oc3ccc(F)cc3)c2)C1" : call = ?
OUT: active

IN: # outcome recorded in this test, key = CCc1nn(C2CCCCC2)c2cc(C3(C#N)CCC(C(=O)O)CC3)ccc12 (stereo not drawn)
OUT: active

IN: For "CC(C)(C)c1ccc(O)c(C(C)(C)C)c1" , which call appears in the assay record?
OUT: inactive
